Molecular target: GABA-A receptor; anion channel (Rattus norvegicus) (UniProt O09028+P15431+P18506+P18508+P19969+P20236+P23574+P23576+P28471+P28473+P30191+P62813+P63079+P63138+Q91ZM7+Q9ES14)
Test: Ratio of the binding in the absence and presence of GABA was determined.
Assay type: protein-complex assay
# GABA shift listing for each entry below

- Molecule: "CCOCN1C2=C(C(=O)Nc3ccccc3F)C(=O)CCN2c2ccc(F)c(F)c21"
  GABA shift: 1.7
- Molecule: "CCOCN1C2=C(C(=O)Nc3ccc(OC(=O)OC)cc3F)C(=O)CCN2c2ccc(F)cc21"
  GABA shift: 3.2
- Molecule: "O=C1CCN2C(=C1C(=O)Nc1ccccc1F)N(CC1CCCO1)c1cc(F)ccc12 (stereo not given)"
  GABA shift: 2.2
- Molecule: "CCOCN1C2=C(C(=O)Nc3ccccc3F)C(=O)CCN2c2cc3ccccc3cc21"
  GABA shift: 1.4
- Molecule: "COC(=O)OCCN1C2=C(C(=O)Nc3ccccc3F)C(=O)CCN2c2ccc(F)cc21"
  GABA shift: 2.2
- Molecule: "CN(C)CCN1C2=C(C(=O)Nc3ccccc3F)C(=O)CCN2c2ccc(F)cc21"
  GABA shift: 2.7
- Molecule: "O=C1CCN2C(=C1C(=O)Nc1ccccc1F)N(CCn1ccnc1)c1cc(F)ccc12"
  GABA shift: 2.6
- Molecule: "CC(=O)OCCN1C2=C(C(=O)Nc3ccccc3F)C(=O)CCN2c2ccc(F)cc21"
  GABA shift: 1.2
- Molecule: "COCCOCN1C2=C(C(=O)Nc3ccccc3F)C(=O)CCN2c2ccc(F)cc21"
  GABA shift: 2.2
- Molecule: "CCOCN1C2=C(C(=O)Nc3ccc(O)cc3F)C(=O)CCN2c2ccc(F)cc21"
  GABA shift: 2
- Molecule: "CCOCN1C2=C(C(=O)Nc3c(F)cccc3F)C(=O)CCN2c2ccc(F)cc21"
  GABA shift: 1.6
- Molecule: "NCCN1C2=C(C(=O)Nc3ccccc3F)C(=O)CCN2c2ccc(F)cc21"
  GABA shift: 2.7
- Molecule: "CCOCCCN1C2=C(C(=O)Nc3ccccc3F)C(=O)CCN2c2ccc(F)cc21"
  GABA shift: 1.6
- Molecule: "O=C1CCN2C(=C1C(=O)Nc1ccccc1F)N(CCO)c1cc(F)ccc12"
  GABA shift: 2.7
- Molecule: "O=C1CCN2C(=C1C(=O)Nc1ccccc1F)N(CCc1ccccn1)c1cc(F)ccc12"
  GABA shift: 2
- Molecule: "CCOCN1C2=C(C(=O)Nc3ccccc3F)C(=O)CCN2c2ccc(Cl)cc21"
  GABA shift: 2.8
- Molecule: "O=C1CCN2C(=C1C(=O)Nc1ccccc1F)N(CCCO)c1cc(F)ccc12"
  GABA shift: 1.8
- Molecule: "CCOCN1C2=C(C(=O)Nc3ccccc3F)C(=O)CCN2c2c1ccc(F)c2F"
  GABA shift: 1.7
- Molecule: "CN(C)c1ccc(CCN2C3=C(C(=O)Nc4ccccc4F)C(=O)CCN3c3ccc(F)cc32)cc1"
  GABA shift: 1.3
- Molecule: "O=C1CCN2C(=C1C(=O)Nc1ccccc1F)N(CCN1CCOCC1)c1cc(F)ccc12"
  GABA shift: 2.2
- Molecule: "CCOCN1C2=C(C(=O)Nc3ccc(OC)cc3F)C(=O)CCN2c2ccc(F)cc21"
  GABA shift: 2.2
- Molecule: "CCOCN1C2=C(C(=O)Nc3ccsc3)C(=O)CCN2c2ccc(F)cc21"
  GABA shift: 1.7
- Molecule: "COCCNCCN1C2=C(C(=O)Nc3ccccc3F)C(=O)CCN2c2ccc(F)cc21"
  GABA shift: 1.8
- Molecule: "CN(C)CCCN1C2=C(C(=O)Nc3ccccc3F)C(=O)CCN2c2ccc(F)cc21"
  GABA shift: 1.4
- Molecule: "CCOCN1C2=C(C(=O)Nc3ccccc3F)C(=O)CCN2c2ccccc21"
  GABA shift: 2
